subject of test: T1, recombinant human GM-CSF (human, UniProt P04141 18-144)
T1 construct: also called rhGM-CSF; CSF2
assay comment: ELISA on coated rhGM-CSF, UBA relative to 1D2
Below, each of the binders is paired with its reported binding affinity % of 1D2 value.
Dear colleague, please return just the value in %, with no unit written.

// below: answered binders
Problem: State its binding affinity % of 1D2 for this binder: 1D2 SDR mutant LV95C (antibody, IgG1, V domains shown, also called X10 C) VH: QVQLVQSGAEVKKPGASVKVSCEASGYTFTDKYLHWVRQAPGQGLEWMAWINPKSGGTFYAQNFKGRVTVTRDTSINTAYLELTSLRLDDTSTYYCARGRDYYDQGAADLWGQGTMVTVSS VL: DIQLTQSPSSLSASVGDRVTITCRASQGINSVLAWYQQKPGKAPKLLLYAASKLESGVPSRFSGSGSGTDYTLTISSLQPEDFGTYYCQQYYSPCRTFGQGTKVEIKR
Result: 46

Problem: Respond only with binding affinity % of 1D2 recorded for 1D2 SDR mutant HK32V (antibody, IgG1, V domains shown, also called X2 V) VH: QVQLVQSGAEVKKPGASVKVSCEASGYTFTDVYLHWVRQAPGQGLEWMAWINPKSGGTFYAQNFKGRVTVTRDTSINTAYLELTSLRLDDTSTYYCARGRDYYDQGAADLWGQGTMVTVSS VL: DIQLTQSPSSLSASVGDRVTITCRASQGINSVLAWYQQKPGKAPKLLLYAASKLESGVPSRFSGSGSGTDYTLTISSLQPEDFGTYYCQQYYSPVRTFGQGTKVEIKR
Result: 90

Next binder, binding affinity % of 1D2 to be filled in.
Problem: // Input: 1D2 SDR mutant HK32P (antibody, IgG1, V domains shown, also called X2 P) VH: QVQLVQSGAEVKKPGASVKVSCEASGYTFTDPYLHWVRQAPGQGLEWMAWINPKSGGTFYAQNFKGRVTVTRDTSINTAYLELTSLRLDDTSTYYCARGRDYYDQGAADLWGQGTMVTVSS VL: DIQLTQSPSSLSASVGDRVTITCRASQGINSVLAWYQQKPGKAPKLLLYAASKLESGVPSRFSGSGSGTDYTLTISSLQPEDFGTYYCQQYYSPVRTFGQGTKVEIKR . Output its binding affinity % of 1D2 only.
Result: 88
